- ASSAY_SYSTEM: AquaOBP4
- ASSAY_SUMMARY: Fluorescence competitive binding assay with 1-NPN reporter
- Parameters: species or system Ambrostoma quadriimpressum
- MEASUREMENT_SETUP: Table 3; pH 7.2; 2 µM 1-NPN, 2 µM protein, compounds 10 to 70 µM
MEASURED_PARAMETER: IC50 (µM)
Give the quantity in µM, number only.

Sure, the documented IC50 for O=C/C=C/c1ccccc1 is 149

Sure, the documented IC50 for CCCCOC(=O)c1ccccc1C(=O)OCCCC [Dibutyl phthalate] is 45.6

Sure, the documented IC50 for CC(=O)/C=C/C1=C(C)CCCC1(C)C is 56.6

Sure, the documented IC50 for CC/C=C\CCOC(=O)c1ccccc1 [cis-3-Hexenyl benzoate] is 65.8

Sure, the documented IC50 for CC(C)COC(=O)c1ccccc1C(=O)OCC(C)C [Diisobutyl phthalate] is 50.4

* * *

I'd appreciate it if you could supply pIC50 values for the items below.
- ASSAY_SYSTEM: AquaOBP4
- ASSAY_SUMMARY: Fluorescence competitive binding assay with 1-NPN reporter
- Design: species or system Ambrostoma quadriimpressum
- MEASUREMENT_SETUP: Table 4; pH 7.2; 2 µM 1-NPN
Kindly note that pIC50 refers to -log10 of the concentration in mol/L and answer with the value alone.

Item: CCCCCCCCOC(=O)c1ccccc1C(=O)OCCCC [Butyl octyl phthalate] | System: AquaOBP4 | pIC50: 4.62

Item: CCCCOC(=O)c1ccccc1C(=O)OCCCC [Dibutyl phthalate] | System: AquaOBP4 | pIC50: 4.34

Item: O=C/C=C/c1ccccc1 | System: AquaOBP4 | pIC50: 3.83
